system: freshly abraided skin on a finger knuckle; test: standard sting test on abraded finger knuckle skin; type: in vivo, human; conditions: additional testing and re-testing of chemicals and solvents in their neat state, standard sting test
Quantity kind: LEVEL OF STING

Here is how some compounds turned out for LEVEL OF STING.
> print(dat)
                           compound                           measured.target  meas.value
1                          CC(CO)CO  freshly abraided skin on a finger knuckle           +
2                         CCCC(C)=O  freshly abraided skin on a finger knuckle          ++
3                          CCC(C)=O  freshly abraided skin on a finger knuckle         +++
4  CC(=O)OC(C)C [Isopropyl acetate]  freshly abraided skin on a finger knuckle           +
5         COC(C)=O [Methyl acetate]  freshly abraided skin on a finger knuckle         +++

Look up LEVEL OF STING for the entries below, preserving their order.
1. CCCCCCC
2. CO
3. CC(=O)OC(C)(C)C [tert-Butyl acetate]
4. CC(C)=O
5. CCCCCC

Completion:
−
+++
+/−
+++
−

Prompt: Provide the documented LEVEL OF STING with freshly abraided skin on a finger knuckle as the system for `CCO`
Completion: +++

---

tested on: freshly abraided skin on a finger knuckle; assay: standard sting test on abraded finger knuckle skin; format: in vivo, human; conditions: additional testing and re-testing of chemicals and solvents in their neat state, standard sting test
Quantity kind: LEVEL OF STING

Here is how some compounds turned out for LEVEL OF STING.
> print(dat)
                                   compound   quantity.kind  meas.value
1                                    CCCCCO  LEVEL OF STING           +
2  CCCCCOC(C)=O [Amyl Acetate (mixed isomers), Amyl Acetate]  LEVEL OF STING         +/−
3             CCCOC(C)=O [n-Propyl acetate]  LEVEL OF STING           +
4                                  CCCCCCCC  LEVEL OF STING           −
5                                    CC(C)O  LEVEL OF STING          ++
6                                   CC(C)CO  LEVEL OF STING           +

# input for lookup
Prompt: Name the reported LEVEL OF STING value associated with the compound CCCCOC(C)=O [n-Butyl Acetate]
Completion: +/−

---

test system: freshly abraided skin on a finger knuckle; experiment: standard sting test on abraded finger knuckle skin; format: in vivo, human; details: individual collodion ingredients tested neat (undiluted), a droplet or two on freshly abraided skin
Quantity kind: LEVEL OF STING

> print(dat)
                                   molecule  meas.value
1  CCCCCOC(C)=O [Amyl Acetate (mixed isomers), Amyl Acetate]         +/−
2                                       CCO         +++
3                                    CC(C)O          ++
4             CCCCOC(C)=O [n-Butyl Acetate]         +/−
